measurementProtocol: reduction of polyQ htt aggregates in cells – imaging, exon1htt(103Q)mCFP cells, high-content imaging, primary screen (AID 483);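 note: compound exposure lasted 3 days before fixation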
studyConditions: exon1htt(103Q)mCFP cell line, aggregate imaging, at 2 µM; stronger effect = higher value
readoutType: inhibition of aggregation (%)
Express your answer in %, writing the number without its unit.

Q: Recorded inhibition of aggregation of `C1COC(NC(C2CC2)C2CC2)=N1` , please.
Ans: 19

Q: Check `Cc1cc(C)nc(N2CCC(C(=O)NCc3cccc(C(F)(F)F)c3)CC2)n1` too.
Ans: -55.6

Q: Check `Cc1cccc(N2CCN(C(=O)c3ccc(NS(=O)(=O)c4c(C)noc4C)cc3)CC2)c1C` too.
Ans: -23.1

Q: Check `O=C(CCCn1c(=O)c2sccc2n(CC(=O)NCc2ccco2)c1=O)NCc1ccco1` too.
Ans: -6.2

Q: Check CCOC(=O)C(C)On1c(SC(C)C(=O)OCC)nc2ccccc2c1=O (stereo unspecified) too.
Ans: 10.3

Q: Check `O=C(CSc1nnnn1Cc1ccccc1)Nc1ccc2c(c1)OCO2` too.
Ans: 10
